Molecular target: BRM (Homo sapiens)
Construct: In-Cell Western Screen of BRM Degradation in SW1573 Cells; endogenous in cells; host or cells: SW1573
Sequence (P51531 whole entry): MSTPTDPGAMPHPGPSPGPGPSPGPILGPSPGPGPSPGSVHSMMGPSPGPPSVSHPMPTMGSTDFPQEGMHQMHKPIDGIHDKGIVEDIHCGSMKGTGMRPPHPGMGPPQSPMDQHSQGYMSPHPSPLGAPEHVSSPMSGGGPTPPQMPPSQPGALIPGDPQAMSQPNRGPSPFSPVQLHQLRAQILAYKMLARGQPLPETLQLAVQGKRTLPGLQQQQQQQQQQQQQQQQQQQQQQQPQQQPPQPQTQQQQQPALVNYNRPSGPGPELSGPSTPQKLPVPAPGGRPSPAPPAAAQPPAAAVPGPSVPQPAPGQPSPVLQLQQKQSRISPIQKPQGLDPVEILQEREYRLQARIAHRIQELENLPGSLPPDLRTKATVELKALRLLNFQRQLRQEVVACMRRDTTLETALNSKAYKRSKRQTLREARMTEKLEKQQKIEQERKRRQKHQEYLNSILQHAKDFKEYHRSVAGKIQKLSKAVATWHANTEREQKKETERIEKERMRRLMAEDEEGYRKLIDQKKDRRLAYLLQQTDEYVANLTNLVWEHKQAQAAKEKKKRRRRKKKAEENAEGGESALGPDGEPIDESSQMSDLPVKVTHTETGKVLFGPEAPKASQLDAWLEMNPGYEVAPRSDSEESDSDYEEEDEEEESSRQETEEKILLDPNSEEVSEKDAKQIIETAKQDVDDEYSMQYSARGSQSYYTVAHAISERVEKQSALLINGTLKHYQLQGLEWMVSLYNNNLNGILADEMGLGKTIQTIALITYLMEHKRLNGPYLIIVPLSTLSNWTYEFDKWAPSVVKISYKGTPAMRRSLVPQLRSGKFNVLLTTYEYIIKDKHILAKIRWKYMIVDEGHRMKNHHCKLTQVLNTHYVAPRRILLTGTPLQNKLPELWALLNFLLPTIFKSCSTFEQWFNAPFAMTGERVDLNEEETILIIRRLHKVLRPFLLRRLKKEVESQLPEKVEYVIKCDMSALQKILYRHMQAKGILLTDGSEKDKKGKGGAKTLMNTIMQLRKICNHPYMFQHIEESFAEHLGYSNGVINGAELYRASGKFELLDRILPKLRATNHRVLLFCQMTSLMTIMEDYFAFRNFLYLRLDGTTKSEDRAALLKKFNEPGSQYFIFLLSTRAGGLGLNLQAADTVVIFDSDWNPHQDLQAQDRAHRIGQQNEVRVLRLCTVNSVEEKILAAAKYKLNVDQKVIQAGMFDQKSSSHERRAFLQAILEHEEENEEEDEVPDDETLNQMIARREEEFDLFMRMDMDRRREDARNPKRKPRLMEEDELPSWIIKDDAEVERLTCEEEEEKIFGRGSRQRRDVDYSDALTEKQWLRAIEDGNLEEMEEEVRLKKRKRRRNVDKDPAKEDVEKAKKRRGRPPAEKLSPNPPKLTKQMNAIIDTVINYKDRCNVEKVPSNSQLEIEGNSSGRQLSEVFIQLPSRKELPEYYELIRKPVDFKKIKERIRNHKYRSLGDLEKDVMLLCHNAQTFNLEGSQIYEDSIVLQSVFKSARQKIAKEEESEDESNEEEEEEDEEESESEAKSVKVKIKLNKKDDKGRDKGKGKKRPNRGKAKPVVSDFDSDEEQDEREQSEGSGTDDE
Assay: In-cell Western screen of BRM degradation in SW1573 cells (Dmax and DC50)
Format: cell-based
Conditions: BRM degradation, SW1573 cells; Table 2D; read-out: *DC50
Method: In-Cell Western Screen of BRM Degradation in SW1573 Cells […] To read each plate TBS-T was removed, and each plate was inverted tapped on a paper towel. The plates were read on the LI-COR Odyssey with default intensity settings of 5.0 for both channels. LI-COR images were analyzed with the in-cell Western feature of Image Studio Lite.
As shown below, each of these molecules has a reported DC50 value.

molecule	target.or.test.system	recorded.measurement
Cc1ncsc1-c1ccc([C@H](C)NC(=O)[C@@H]2C[C@@H](O)CN2C(=O)[C@H](c2cc(OCC[C@H]3CCN(C[C@H]4C[C@H](Oc5cc(N6C7CCC6CN(c6cc(-c8ccccc8O)nnc6N)C7)ccn5)C4)C[C@H]3C)no2)C(C)C)cc1 (racemic)	BRM (Homo sapiens)	> 30 nM
Cc1ncsc1-c1ccc([C@H](C)NC(=O)[C@@H]2C[C@@H](O)CN2C(=O)[C@@H](c2cc(OCC[C@@H]3CCN(C[C@H]4C[C@H](Oc5cc(N6C7CCC6CN(c6cc(-c8ccccc8O)nnc6N)C7)ccn5)C4)[C@H](C)[C@@H]3C)no2)C(C)C)cc1 (single isomer, unassigned)	BRM (Homo sapiens)	< 2.5 nM

Provide one value: measured DC50 of Cc1ncsc1-c1ccc([C@H](C)NC(=O)[C@@H]2C[C@@H](O)CN2C(=O)[C@@H](c2cc(N3CCC(OC4CCN(CC5CC(CN6CCC([C@@H](C)n7cc(-c8cc(-c9ccccc9O)nnc8N)cn7)CC6)C5)CC4)CC3)no2)C(C)C)cc1 (single isomer, unassigned)
< 2.5 nM

Provide one value: measured DC50 of `Cc1ncsc1-c1ccc([C@H](C)NC(=O)[C@@H]2C[C@@H](O)CN2C(=O)[C@@H](c2cc(OCCC3CCN(C[C@H]4C[C@H](N5CCC(CN6CCOC7(CCN(c8cc(-c9ccccc9O)nnc8N)CC7)C6)CC5)C4)CC3)no2)C(C)C)cc1`
< 2.5 nM

====

molecular target: BRM (Homo sapiens); construct: In-Cell Western Screen of BRM Degradation in SW1573 Cells; endogenous in cells; host or cells: SW1573; test: In-cell Western screen of BRM degradation in SW1573 cells (Dmax and DC50); assay type: cell-based; settings: BRM degradation, SW1573 cells; when tested at the top concentration of between 0.3 and 10 μM; read-out: Dmax (%) (% degraded)
As shown below, each of these compounds has a reported Dmax value.

Known Dmax results, listed for orientation:
compound	recorded.measurement
Cc1ncsc1-c1ccc([C@H](C)NC(=O)[C@@H]2C[C@@H](O)CN2C(=O)[C@@H](c2cc(OCCN3CCN(CCOc4cc(N5C6CCC5CN(c5cc(-c7ccccc7O)nnc5N)C6)ccn4)CC3)no2)C(C)C)cc1	> 75%
Cc1ncsc1-c1ccc(CNC(=O)[C@@H]2C[C@@H](O)CN2C(=O)[C@@H](c2cc(OCCN3CCN(CCOCCn4cc(-c5cc(-c6ccccc6O)nnc5N)cn4)CC3)no2)C(C)C)cc1	> 75%
Cc1ncsc1-c1ccc(CNC(=O)[C@@H]2C[C@@H](O)CN2C(=O)[C@@H](NC(=O)CN2CCN(CCOCCOCCCc3cc(N4C5CCC4CN(c4cc(-c6ccccc6O)nnc4N)C5)ccn3)CC2)C(C)(C)C)cc1	> 75%
Cc1ncsc1-c1ccc(CNC(=O)[C@@H]2C[C@@H](O)CN2C(=O)[C@@H](NC(=O)COCCOCCOCCOCCOc2cc(N3C4CCC3CN(c3cc(-c5ccccc5O)nnc3N)C4)ccn2)C(C)(C)C)cc1	> 75%
Cc1nccn1-c1ccc([C@H](C)NC(=O)[C@@H]2C[C@@H](O)CN2C(=O)[C@H](c2cc(OCCN3CCN(CCOc4cc(N5C6CCC5CN(c5cc(-c7ccccc7O)nnc5N)C6)ccn4)CC3)no2)C(C)C)cc1	> 75%

Provide one value: measured Dmax of `Cc1ncsc1-c1ccc([C@H](C)NC(=O)[C@@H]2C[C@@H](O)CN2C(=O)[C@@H](c2cc(OCCN3CCN(CCOc4cc(N5C6CCC5CN(c5cc(-c7ccccc7O)nnc5N)C6)ccn4)C[C@H]3C)no2)C(C)C)cc1`
> 75%

Provide one value: measured Dmax of `Cc1ncsc1-c1ccc(CNC(=O)[C@@H]2C[C@@H](O)CN2C(=O)[C@@H](NC(=O)COCCOCCOCCOc2cc(N3C4CCC3CN(c3cc(-c5ccccc5O)nnc3N)C4)ccn2)C(C)(C)C)cc1`
> 75%

Provide one value: measured Dmax of `Cc1ncsc1-c1ccc(CNC(=O)[C@@H]2C[C@@H](O)CN2C(=O)[C@@H](NC(=O)COCCOCCOCCOCCOCCn2cc(-c3cc(-c4ccccc4O)nnc3N)cn2)C(C)(C)C)cc1`
> 75%

Provide one value: measured Dmax of `Cc1ncsc1-c1ccc(CNC(=O)[C@@H]2C[C@@H](O)CN2C(=O)[C@@H](NC(=O)COCCOCCOCCOCCOCCOc2cc(N3[C@@H]4CC[C@H]3CN(c3cc(-c5ccccc5O)nnc3N)C4)ccn2)C(C)(C)C)cc1`
> 75%

Provide one value: measured Dmax of `Cc1ncsc1-c1ccc(CNC(=O)[C@@H]2C[C@@H](O)CN2C(=O)[C@@H](c2cc(OCCOCCOCCOc3cc(N4C5CCC4CN(c4cc(-c6ccccc6O)nnc4N)C5)ccn3)no2)C(C)C)cc1`
> 75%

Provide one value: measured Dmax of `Cc1ncsc1-c1ccc(CNC(=O)[C@@H]2C[C@@H](O)CN2C(=O)[C@H](c2cc(CCCOCCOCCOCCOCCn3cc(-c4cc(-c5ccccc5O)nnc4N)cn3)no2)C(C)C)cc1`
> 75%

Provide one value: measured Dmax of `Cc1ncsc1-c1ccc(CNC(=O)[C@@H]2C[C@@H](O)CN2C(=O)[C@@H](NC(=O)COCCOCCOCCOCCOCCOCCOCCOc2cc(N3C4CCC3CN(c3cc(-c5ccccc5O)nnc3N)C4)ccn2)C(C)(C)C)cc1`
> 75%
